Attribute: IC50
Tested on: A. baumannii ATCC 17978
MEASUREMENT NOTES: Antimicrobial susceptibility testing: 50% growth inhibitory concentration (IC50) determination in Iso-Sensitest broth
Assay type: cell-based
STATED CONDITIONS: Acinetobacter baumannii; A. baumannii strain ATCC17978; Iso-Sensitest medium; OD 600 nm over 16 h; 35±2° C.; read-out: IC50 ATCC17978 (50% growth inhibition concentration)

| COMPOUND | SYSTEM | IC50 |
| --- | --- | --- |
| CN1C(=O)[C@H](CCCCN)NC(=O)[C@H](CCCN)NCc2cccnc2Sc2c(Cl)ccc(-c3ccc(P(=O)(O)O)cc3)c2CNC(=O)[C@@H]1Cc1c[nH]c2ccccc12 [Example 10.02] | A. baumannii ATCC 17978 | 150 nM |
| CN1C(=O)[C@H](CCCCN)NC(=O)[C@H](CCCN)NCc2cccnc2Sc2c(Cl)ccc(-c3ccc(-c4nnn[nH]4)cc3)c2CNC(=O)[C@@H]1Cc1c[nH]c2ccccc12 [Example 1.02] | A. baumannii ATCC 17978 | 100 nM |
| CN1C(=O)[C@H](CCCCN)NC(=O)[C@H](CCCN)NCc2cccnc2Sc2cccc(-c3ccc(-c4nnn[nH]4)cc3)c2CNC(=O)[C@@H]1Cc1c[nH]c2ccccc12 [Example 5.00] | A. baumannii ATCC 17978 | 20 nM |
| CC(=O)NS(=O)(=O)c1ccc(-c2ccc(Cl)c3c2CNC(=O)[C@H](Cc2c[nH]c4ccccc24)N(C)C(=O)[C@H](CCCCN)NC(=O)[C@H](CCCO)NCc2cccnc2S3)cc1 [Example 16.00] | A. baumannii ATCC 17978 | 310 nM |
| C[C@@H]1NCc2cccnc2Sc2c(Cl)ccc(-c3ccc(S(=O)(=O)O)cc3)c2CNC(=O)[C@H](Cc2c[nH]c3ccccc23)N(C)C(=O)[C@H](CCCN)NC1=O [Example 14.00] | A. baumannii ATCC 17978 | 720 nM |

----------
Attribute: pIC50
Tested on: A. baumannii ATCC 17978
MEASUREMENT NOTES: Antimicrobial susceptibility testing: 50% growth inhibitory concentration (IC50) determination in Iso-Sensitest broth
Format: cell-based
STATED CONDITIONS: Acinetobacter baumannii; A. baumannii strain ATCC17978; Iso-Sensitest medium; OD 600 nm over 16 h; 35±2° C.; read-out: IC50 ATCC17978 (50% growth inhibition concentration)
Excerpt: Antimicrobial Susceptibility Testing: 50% Growth Inhibitory Concentration (IC50) Determination The in vitro antimicrobial activity of the compounds was alternatively determined according to the following procedure: The assay used a 10-points Iso-Sensitest broth medium to measure quantitatively the in vitro activity of the compounds against A. baumannii ATCC 17978. […]
pIC50: −log10 of the molar value.

| ITEM SMILES | pIC50 |
| --- | --- |
| COc1ccc(-c2ccc(-c3nnn[nH]3)cc2)c2c1Sc1ncccc1CN[C@@H](CCCN)C(=O)N[C@@H](CCCCN)C(=O)N(C)[C@@H](Cc1c[nH]c3ccccc13)C(=O)NC2 | 7.40 |
| CN1C(=O)[C@H](CCCCN)NC(=O)[C@H](CCCN)NCc2cccnc2Sc2c(F)ccc(-c3ccc(S(=O)(=O)O)cc3)c2CNC(=O)[C@@H]1Cc1c[nH]c2ccccc12 | 7.70 |
| CN1C(=O)[C@H](CCCCN)NC(=O)[C@H](CCCN)NCc2cccnc2Sc2c(Cl)ccc(-c3ccc4nn[nH]c4c3)c2CNC(=O)[C@@H]1Cc1c[nH]c2ccccc12 | 7.70 |
| COc1ccc(-c2ccc(S(=O)(=O)O)cc2)c2c1Sc1ncccc1CN[C@@H](CCCN)C(=O)N[C@@H](CCCCN)C(=O)N(C)[C@@H](Cc1c[nH]c3ccccc13)C(=O)NC2 | 7.10 |
| CN1C(=O)[C@H](CCCCN)NC(=O)[C@H](CCCN)NCc2cccnc2Sc2c(Cl)ccc(-c3ccc(-c4noc(=O)[nH]4)cc3)c2CNC(=O)[C@@H]1Cc1c[nH]c2ccccc12 | 7.70 |
